Catalogue of Dmax readings, one per entry.
measuredOn: HDAC2 (Homo sapiens, UniProt Q92769)
Construct: endogenous in cells; host or cells: HCT116
Sequence (Q92769 whole entry): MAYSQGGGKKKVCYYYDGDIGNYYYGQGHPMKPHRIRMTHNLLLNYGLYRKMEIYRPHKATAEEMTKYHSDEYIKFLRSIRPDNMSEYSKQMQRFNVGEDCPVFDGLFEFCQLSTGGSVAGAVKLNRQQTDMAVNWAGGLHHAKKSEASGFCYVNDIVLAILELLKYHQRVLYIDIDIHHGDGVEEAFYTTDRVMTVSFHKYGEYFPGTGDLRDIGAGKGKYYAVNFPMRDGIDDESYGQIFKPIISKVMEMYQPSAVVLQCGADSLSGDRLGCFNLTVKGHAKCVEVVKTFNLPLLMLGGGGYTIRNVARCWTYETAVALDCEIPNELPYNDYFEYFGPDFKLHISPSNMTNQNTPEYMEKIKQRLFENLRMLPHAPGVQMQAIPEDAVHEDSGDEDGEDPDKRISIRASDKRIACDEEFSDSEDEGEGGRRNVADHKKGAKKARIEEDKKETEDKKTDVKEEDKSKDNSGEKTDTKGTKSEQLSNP
assayName: HDAC2 degradation in HCT116 cells, quantitative western blot
Assay type: cell-based
reportedConditions: HCT-116, 24 h; HCT116, screened at 0.1, 1 and 10 μM; maximum degradation irrespective of concentration; read-out: HDAC 2 Degrader (% Degradation)

>  <sampleSmiles>
Cc1ncsc1-c1ccc(CNC(=O)[C@@H]2C[C@@H](O)CN2C(=O)[C@@H](NC(=O)COCCCCCCCCCOCC(=O)Nc2ccc(C(=O)Nc3ccc(F)cc3N)cc2)C(C)(C)C)cc1

>  <Dmax, %>
26

$$$$
>  <sampleSmiles>
CC(=O)N[C@H](C(=O)N1C[C@H](O)C[C@H]1C(=O)NCc1ccc(-c2scnc2C)cc1OCCCCCCCCCCCC(=O)Nc1ccc(C(=O)Nc2ccccc2N)cc1)C(C)(C)C

>  <Dmax, %>
49

$$$$
>  <sampleSmiles>
CN[C@@H](C)C(=O)N[C@H](C(=O)N1C[C@@H](NC(=O)CCCCCCCCCCC(=O)Nc2ccc(C(=O)Nc3ccccc3N)cc2)C[C@H]1C(=O)N[C@@H]1CCCc2ccccc21)C1CCCCC1

>  <Dmax, %>
58

$$$$

----------
measuredOn: NuRD (Homo sapiens)
Sequence (Q13330 162-546 partner limits assumed, one chain of several): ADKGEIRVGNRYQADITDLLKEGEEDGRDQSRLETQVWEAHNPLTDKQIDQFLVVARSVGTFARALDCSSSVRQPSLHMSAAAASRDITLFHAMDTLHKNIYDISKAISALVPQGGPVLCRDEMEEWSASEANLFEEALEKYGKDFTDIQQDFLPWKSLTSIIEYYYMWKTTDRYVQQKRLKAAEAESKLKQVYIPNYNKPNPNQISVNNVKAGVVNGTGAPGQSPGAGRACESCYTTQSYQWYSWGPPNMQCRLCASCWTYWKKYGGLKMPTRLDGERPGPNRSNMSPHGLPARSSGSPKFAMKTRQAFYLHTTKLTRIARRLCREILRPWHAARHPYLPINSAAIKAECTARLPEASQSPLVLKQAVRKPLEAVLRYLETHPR
Sequence (Q09028 whole entry partner, one chain of several): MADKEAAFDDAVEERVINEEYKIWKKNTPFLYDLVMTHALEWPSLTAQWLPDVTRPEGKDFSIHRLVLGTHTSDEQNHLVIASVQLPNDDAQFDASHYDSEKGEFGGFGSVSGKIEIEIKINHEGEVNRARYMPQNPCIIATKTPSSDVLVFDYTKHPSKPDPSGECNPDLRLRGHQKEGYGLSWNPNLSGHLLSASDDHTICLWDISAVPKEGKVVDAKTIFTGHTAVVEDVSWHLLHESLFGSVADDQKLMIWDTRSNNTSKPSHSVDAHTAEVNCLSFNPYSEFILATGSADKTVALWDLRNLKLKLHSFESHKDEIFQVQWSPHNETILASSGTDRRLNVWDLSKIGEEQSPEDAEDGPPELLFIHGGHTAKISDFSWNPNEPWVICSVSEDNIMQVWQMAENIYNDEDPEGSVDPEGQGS
assayName: HDAC inhibition assay, NuRD complex (Table 1)
pIC50: −log10 of the molar value.
propertyLabel: pIC50

>  <sampleSmiles>
Cc1ncsc1-c1ccc(CNC(=O)[C@@H]2C[C@@H](O)CN2C(=O)[C@@H](NC(=O)CCCCCCCCCCC(=O)Nc2ccc(C(=O)Nc3ccccc3N)cc2)C(C)(C)C)cc1

>  <reportedResult>
6.38

$$$$
>  <sampleSmiles>
Cc1ncsc1-c1ccc(CNC(=O)[C@@H]2C[C@@H](O)CN2C(=O)[C@@H](NC(=O)COCCCCCCCCCOCC(=O)Nc2ccc(C(=O)Nc3ccccc3N)cc2)C(C)(C)C)cc1

>  <reportedResult>
4.93

$$$$
>  <sampleSmiles>
Cc1ncsc1-c1ccc(CNC(=O)[C@@H]2C[C@@H](O)CN2C(=O)[C@@H](NC(=O)CCCCCCCC(=O)Nc2ccc(C(=O)Nc3ccccc3N)cc2)C(C)(C)C)cc1

>  <reportedResult>
6.47

$$$$
>  <sampleSmiles>
Cc1ncsc1-c1ccc(CNC(=O)[C@@H]2C[C@@H](O)CN2C(=O)[C@@H](NC(=O)COCCCCCCCCC(=O)Nc2ccc(C(=O)Nc3ccccc3N)cc2)C(C)(C)C)cc1

>  <reportedResult>
5.93

$$$$
>  <sampleSmiles>
Cc1ncsc1-c1ccc(CNC(=O)[C@@H]2C[C@@H](O)CN2C(=O)[C@@H](NC(=O)COCCCCCCOCC(=O)Nc2ccc(C(=O)Nc3ccccc3N)cc2)C(C)(C)C)cc1

>  <reportedResult>
5.09

$$$$

----------
measuredOn: CoREST (Homo sapiens, UniProt Q13547)
Sequence (Q13547 whole entry, other chains not shown): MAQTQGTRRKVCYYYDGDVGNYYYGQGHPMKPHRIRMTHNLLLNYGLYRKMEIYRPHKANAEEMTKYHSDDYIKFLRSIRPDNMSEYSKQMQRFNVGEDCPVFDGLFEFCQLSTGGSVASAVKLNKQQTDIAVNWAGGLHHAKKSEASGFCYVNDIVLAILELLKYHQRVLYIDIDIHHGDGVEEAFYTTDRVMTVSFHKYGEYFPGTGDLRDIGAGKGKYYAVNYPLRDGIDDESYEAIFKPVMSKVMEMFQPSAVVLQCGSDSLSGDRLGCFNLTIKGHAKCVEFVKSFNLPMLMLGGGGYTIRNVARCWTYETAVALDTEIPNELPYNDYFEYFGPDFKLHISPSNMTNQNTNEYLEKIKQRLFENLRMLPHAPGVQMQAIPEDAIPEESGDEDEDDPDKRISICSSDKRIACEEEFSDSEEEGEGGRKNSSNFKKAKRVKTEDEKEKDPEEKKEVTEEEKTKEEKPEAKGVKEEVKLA
Sequence (Q9UKL0 86-485 partner limits assumed, other chains not shown): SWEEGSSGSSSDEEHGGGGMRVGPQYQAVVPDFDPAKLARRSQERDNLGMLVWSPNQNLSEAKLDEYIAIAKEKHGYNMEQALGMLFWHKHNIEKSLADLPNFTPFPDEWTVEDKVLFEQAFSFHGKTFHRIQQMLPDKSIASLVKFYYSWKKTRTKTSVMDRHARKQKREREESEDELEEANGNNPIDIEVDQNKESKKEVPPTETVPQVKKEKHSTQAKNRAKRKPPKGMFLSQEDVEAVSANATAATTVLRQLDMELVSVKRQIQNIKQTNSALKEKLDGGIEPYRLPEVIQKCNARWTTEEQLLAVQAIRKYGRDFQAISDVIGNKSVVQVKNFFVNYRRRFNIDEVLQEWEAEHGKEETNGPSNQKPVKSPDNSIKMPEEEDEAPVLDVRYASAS
assayName: HDAC inhibition assay, CoREST complex (Table 1, run under different conditions)
reportedConditions: Table 1 conditions (differ from FIG. 3)
pIC50: −log10 of the molar value.

>  <sampleSmiles>
Cc1ncsc1-c1ccc(CNC(=O)[C@@H]2C[C@@H](O)CN2C(=O)[C@@H](NC(=O)CCCCCCCCCCC(=O)Nc2ccc(C(=O)Nc3ccc(F)cc3N)cc2)C(C)(C)C)cc1

>  <measuredOn>
CoREST (Homo sapiens, UniProt Q13547)

>  <pIC50>
5.42

$$$$
>  <sampleSmiles>
Cc1ncsc1-c1ccc(CNC(=O)[C@@H]2C[C@@H](O)CN2C(=O)[C@@H](NC(=O)COCCCCCCOCC(=O)Nc2ccc(C(=O)Nc3ccccc3N)cc2)C(C)(C)C)cc1

>  <measuredOn>
CoREST (Homo sapiens, UniProt Q13547)

>  <pIC50>
5.14

$$$$
>  <sampleSmiles>
Cc1ncsc1-c1ccc(CNC(=O)[C@@H]2C[C@@H](O)CN2C(=O)[C@@H](NC(=O)CCCCCCCC(=O)Nc2ccc(C(=O)Nc3ccccc3N)cc2)C(C)(C)C)cc1

>  <measuredOn>
CoREST (Homo sapiens, UniProt Q13547)

>  <pIC50>
6.61

$$$$
>  <sampleSmiles>
Cc1ncsc1-c1ccc(CNC(=O)[C@@H]2C[C@@H](O)CN2C(=O)[C@@H](NC(=O)COCCCCCCCCCOCC(=O)Nc2ccc(C(=O)Nc3ccccc3N)cc2)C(C)(C)C)cc1

>  <measuredOn>
CoREST (Homo sapiens, UniProt Q13547)

>  <pIC50>
5.38

$$$$
>  <sampleSmiles>
Cc1ncsc1-c1ccc(CNC(=O)[C@@H]2C[C@@H](O)CN2C(=O)[C@@H](NC(=O)CCCCCCCCCCC(=O)Nc2ccc(C(=O)Nc3ccccc3N)cc2)C(C)(C)C)cc1

>  <measuredOn>
CoREST (Homo sapiens, UniProt Q13547)

>  <pIC50>
6.40

$$$$
>  <sampleSmiles>
Cc1ncsc1-c1ccc(CNC(=O)[C@@H]2C[C@@H](O)CN2C(=O)[C@@H](NC(=O)COCCCCCCCCC(=O)Nc2ccc(C(=O)Nc3ccccc3N)cc2)C(C)(C)C)cc1

>  <measuredOn>
CoREST (Homo sapiens, UniProt Q13547)

>  <pIC50>
6.07

$$$$
